Biological target: Recombinant human LTC4 synthase (Homo sapiens)
Construct: made in house; host or cells: Pichia pastoris ('Piccia pastoralis' [sic])
Sequence (Q16873 1-150): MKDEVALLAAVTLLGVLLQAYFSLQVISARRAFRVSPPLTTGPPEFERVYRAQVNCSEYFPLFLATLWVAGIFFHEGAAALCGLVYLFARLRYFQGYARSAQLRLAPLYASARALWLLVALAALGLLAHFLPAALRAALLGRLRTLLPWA
Assay: In vitro assay of LTC4 synthase inhibition (HPLC or HTRF detection of LTC4)
Type: biochemical
Details: inhibitor concentration 10 μM; percentage inhibitions of LTC4
Protocol: In the assay LTC4 synthase catalyses the reaction where the substrate LTA4 methyl ester is converted to the corresponding LTC4 methyl ester. […] The mobile phase consists of acetonitrile/MeOH/H2O (32.5/30/37.5) with 1% acetic acid pH adjusted with NH3 to pH 5.6, and absorbance measured at 280 nm with a Waters 2487 UV-detector. The following is added chronologically to each well: • 1. […] 50 μL stop solution. • 80 μL of the incubation mixture is analysed with HPLC. […]
observation.type: inhibition at 10 µM (%)

INSERT INTO measurements (smiles_entry, observation_type, experimental_value) VALUES
  ('CCCCc1ccc(C(=O)Nc2ccc(NC(=O)c3ccc(NC(=O)c4ccccc4)cc3)cc2C(=O)O)cc1', 'inhibition at 10 µM', 96),
  ('O=C(Nc1ccc(CCc2ccc(NC(=O)c3cccc(C(F)(F)F)c3)c(C(=O)O)c2)cc1C(=O)O)c1ccc(C(F)(F)F)cc1', 'inhibition at 10 µM', 98),
  ('O=C(O)c1cc(-c2ccc(NC(=O)c3cccc4ccccc34)c(C(=O)O)c2)ccc1NC(=O)c1cccc2ccccc12', 'inhibition at 10 µM', 98),
  ('CCCCc1ccc(C(=O)Nc2ccc(NC(=O)c3ccc(NC(=O)c4ccc(OC(C)C)cc4)cc3)cc2C(=O)O)cc1', 'inhibition at 10 µM', 79),
  ('O=C(O)c1cc(-c2ccc(NS(=O)(=O)c3ccccc3)c(C(=O)O)c2)ccc1NS(=O)(=O)c1ccccc1', 'inhibition at 10 µM', 92),
  ('O=C(Cc1ccc(Cl)cc1)Nc1ccc(-c2ccc(NC(=O)Cc3ccc(Cl)cc3)c(C(=O)O)c2)cc1C(=O)O', 'inhibition at 10 µM', 100),
  ('CCCCc1ccc(C(=O)Nc2ccc(NC(=O)c3ccc(NS(=O)(=O)c4cccc(Cl)c4C)cc3)cc2C(=O)O)cc1', 'inhibition at 10 µM', 100),
  ('Nc1ccccc1C(=O)Nc1ccc(-c2ccc(NC(=O)c3ccccc3N)c(C(=O)O)c2)cc1C(=O)O', 'inhibition at 10 µM', 100),
  ('CCCCc1ccc(S(=O)(=O)Nc2ccc(NS(=O)(=O)c3ccc(Oc4ccccc4OC)cc3)cc2C(=O)O)cc1', 'inhibition at 10 µM', 100),
  ('CC(=O)Oc1ccc(C(=O)Nc2ccc(-c3ccc(NC(=O)c4ccc(OC(C)=O)cc4)c(C(=O)O)c3)cc2C(=O)O)cc1', 'inhibition at 10 µM', 97),
  ('CCCCc1ccc(C(=O)Nc2ccc(OCc3ccc(NC(=O)c4cccc(Cl)c4)c(C(=O)O)c3)cc2C(=O)O)cc1', 'inhibition at 10 µM', 100),
  ('O=C(Nc1ccc(-c2ccc(NC(=O)c3cccc(Cl)c3)c(C(=O)O)c2)cc1C(=O)O)c1cccc(Cl)c1', 'inhibition at 10 µM', 88),
  ('CC(C)(C)c1ccc(C(=O)Nc2ccc(CCc3ccc(NC(=O)c4cccc(C(F)(F)F)c4)c(C(=O)O)c3)cc2C(=O)O)cc1', 'inhibition at 10 µM', 100),
  ('O=C(O)c1cc(NS(=O)(=O)c2ccc(Oc3ccccc3)cc2)ccc1NS(=O)(=O)c1ccc(OC(F)(F)F)cc1', 'inhibition at 10 µM', 100);

###

molecular target: Recombinant human LTC4 synthase (Homo sapiens, UniProt Q16873); construct: made in house; host or cells: Pichia pastoris ('Piccia pastoralis' [sic]); assay: In vitro assay of LTC4 synthase inhibition (HPLC or HTRF detection of LTC4); type: biochemical; settings: inhibitor concentration 10 μM; percentage inhibitions of LTC4
Listing: inhibition at 10 µM of selected compounds
observation.type: inhibition at 10 µM (%)

INSERT INTO assay_data (smiles_entry, experimental_value) VALUES
  ('O=C(Nc1ccc(CCc2ccc(NC(=O)c3ccc(C(F)(F)F)cc3)c(C(=O)O)c2)cc1)c1cccc(C(F)(F)F)c1', 85),
  ('O=C(Nc1ccc(-c2ccc(NC(=O)c3ccccc3)c(C(=O)O)c2)cc1C(=O)O)c1ccccc1', 95),
  ('O=C(Nc1cccc(Cl)c1)Nc1ccc(-c2ccc(NC(=O)Nc3cccc(Cl)c3)c(C(=O)O)c2)cc1C(=O)O', 99),
  ('CC(C)(C)c1ccc(C(=O)Nc2ccc(-c3ccc(NC(=O)c4ccc(C(C)(C)C)cc4)c(C(=O)O)c3)cc2C(=O)O)cc1', 100),
  ('O=C(Nc1ccc(COc2ccc(NC(=O)c3cccc(Cl)c3)c(C(=O)O)c2)cc1C(=O)O)c1cccc(Cl)c1', 100),
  ('CCCCc1ccc(S(=O)(=O)Nc2ccc(NS(=O)(=O)c3ccc(Oc4ccccc4)cc3)cc2C(=O)O)cc1', 100),
  ('COc1ccc(C(=O)Nc2ccc(CCc3ccc(NC(=O)c4cccc(C(F)(F)F)c4)c(C(=O)O)c3)cc2C(=O)O)cc1', 87),
  ('CCCCc1ccc(S(=O)(=O)Nc2ccc(NS(=O)(=O)c3ccc(Oc4ccccc4Cl)cc3)cc2C(=O)O)cc1', 98),
  ('CCCCOc1ccc(S(=O)(=O)Nc2ccc(NS(=O)(=O)c3ccc(Oc4ccccc4Cl)cc3)cc2C(=O)O)cc1', 99),
  ('O=C(O)c1cc(-c2ccc(NS(=O)(=O)c3cccnc3)c(C(=O)O)c2)ccc1NS(=O)(=O)c1cccnc1', 69),
  ('CCCCOc1ccc(S(=O)(=O)Nc2ccc(NCc3cccc(OCc4ccccc4Cl)c3)cc2C(=O)O)cc1', 100),
  ('CCCCOc1ccc(S(=O)(=O)Nc2ccc(NCc3cccc(Oc4ccc(C(C)(C)C)cc4)c3)cc2C(=O)O)cc1', 100),
  ('Cc1ccc(S(=O)(=O)Nc2ccc(-c3ccc(NS(=O)(=O)c4ccc(C)cc4)c(C(=O)O)c3)cc2C(=O)O)cc1', 89),
  ('O=C(Nc1ccc(C#Cc2ccc(NC(=O)c3ccc(C(F)(F)F)cc3)c(C(=O)O)c2)cc1)c1cccc(C(F)(F)F)c1', 89);

Numbers sourced from patent US20110294853A1.
